# experimental system: LINGO-1 (human) (UniProt Q96FE5)
# assay info: affinity vs parent Li62 Fab; method not stated
observation type: Fold-Improvement (fold)
Give bare numbers, in fold.

Li62 variant H08 Fab (VH CDR3 SEQ ID NO:28) (Fab, V domains shown) VH: EVQLLESGGGLVQPGGSLRLSCAASGFTFSIYPMFWVRQAPGKGLEWVSWIGPSGGITKYADSVKGRFTISRDNSKNTLYLQMNSLRAEDTATYYCAREGHYNGYFDLWGRGTLVTVSS VL: DIQMTQSPSFLSASVGDSVAITCRASQDISRYLAWYQQRPGKAPKLLIYDASNLQTGVPSRFSGSGSGTDFTFTITSLQPEDFGTYYCQQYDTLHPSFGPGTTVDIK; 6
Li62 variant F02 Fab (VH CDR3 SEQ ID NO:32) (Fab, V domains shown) VH: EVQLLESGGGLVQPGGSLRLSCAASGFTFSIYPMFWVRQAPGKGLEWVSWIGPSGGITKYADSVKGRFTISRDNSKNTLYLQMNSLRAEDTATYYCAREGLIDWFFDQWGRGTLVTVSS VL: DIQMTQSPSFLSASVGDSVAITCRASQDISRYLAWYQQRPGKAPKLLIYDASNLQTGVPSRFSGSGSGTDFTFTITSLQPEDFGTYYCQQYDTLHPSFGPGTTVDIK; 16
Li62 variant F10 Fab (VH CDR3 SEQ ID NO:26) (Fab, V domains shown) VH: EVQLLESGGGLVQPGGSLRLSCAASGFTFSIYPMFWVRQAPGKGLEWVSWIGPSGGITKYADSVKGRFTISRDNSKNTLYLQMNSLRAEDTATYYCARESHIDRYFDLWGRGTLVTVSS VL: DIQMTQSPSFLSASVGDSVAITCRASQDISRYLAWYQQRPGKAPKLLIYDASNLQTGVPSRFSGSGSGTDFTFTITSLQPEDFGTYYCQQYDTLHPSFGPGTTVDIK; 5
Li62 variant D12 Fab (VH CDR3 SEQ ID NO:22) (Fab, V domains shown) VH: EVQLLESGGGLVQPGGSLRLSCAASGFTFSIYPMFWVRQAPGKGLEWVSWIGPSGGITKYADSVKGRFTISRDNSKNTLYLQMNSLRAEDTATYYCAREGHYDWYFDLWGRGTLVTVSS VL: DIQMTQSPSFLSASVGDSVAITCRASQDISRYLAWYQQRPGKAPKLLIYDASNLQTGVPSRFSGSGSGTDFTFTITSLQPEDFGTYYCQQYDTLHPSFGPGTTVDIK; 8
Li113 Fab (Li62 variant C02, VH CDR3 SEQ ID NO:30) (Fab, V domains shown) VH: EVQLLESGGGLVQPGGSLRLSCAASGFTFSIYPMFWVRQAPGKGLEWVSWIGPSGGITKYADSVKGRFTISRDNSKNTLYLQMNSLRAEDTATYYCAREGTYDWYLDLWGRGTLVTVSS VL: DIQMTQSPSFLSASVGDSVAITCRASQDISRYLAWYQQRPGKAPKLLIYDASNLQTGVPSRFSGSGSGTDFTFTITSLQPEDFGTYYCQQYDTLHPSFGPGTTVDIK; 8

Provide the reported Fold-Improvement of each entry below, same order.
1. Li62 variant D05 Fab (VH CDR3 SEQ ID NO:31) (Fab, V domains shown) VH: EVQLLESGGGLVQPGGSLRLSCAASGFTFSIYPMFWVRQAPGKGLEWVSWIGPSGGITKYADSVKGRFTISRDNSKNTLYLQMNSLRAEDTATYYCAREGYYDWYFELWGRGTLVTVSS VL: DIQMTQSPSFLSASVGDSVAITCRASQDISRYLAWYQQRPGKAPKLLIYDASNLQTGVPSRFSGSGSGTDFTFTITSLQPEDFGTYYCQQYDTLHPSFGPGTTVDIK
2. Li62 variant B01 Fab (VH CDR3 SEQ ID NO:20) (Fab, V domains shown) VH: EVQLLESGGGLVQPGGSLRLSCAASGFTFSIYPMFWVRQAPGKGLEWVSWIGPSGGITKYADSVKGRFTISRDNSKNTLYLQMNSLRAEDTATYYCAREGQYDWYFELWGRGTLVTVSS VL: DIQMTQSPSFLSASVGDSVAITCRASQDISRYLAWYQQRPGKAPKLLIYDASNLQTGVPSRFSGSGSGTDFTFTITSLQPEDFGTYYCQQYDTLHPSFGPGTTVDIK
3. Li62 variant F01 Fab (VH CDR3 SEQ ID NO:23) (Fab, V domains shown) VH: EVQLLESGGGLVQPGGSLRLSCAASGFTFSIYPMFWVRQAPGKGLEWVSWIGPSGGITKYADSVKGRFTISRDNSKNTLYLQMNSLRAEDTATYYCAREGRYDWYFDPWGRGTLVTVSS VL: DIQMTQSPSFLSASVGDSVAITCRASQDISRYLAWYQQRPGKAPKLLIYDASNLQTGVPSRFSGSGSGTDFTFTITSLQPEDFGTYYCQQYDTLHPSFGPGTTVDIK

1. 10
2. 8
3. 9

Data provenance is patent US20130323786A1.
